# Tested on: E13 (patient-derived glioblastoma stem cells of classical subtype);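 note: nuclei counted by high-content imaging of Hoechst-stained cells in laminin-coated 384-well plates, relative to 0.1% DMSO vehicle wells, with staurosporine as cell-death control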
# ASSAY_REMARKS: surviving fraction (nuclei count normalised to DMSO); higher = more cells surviving (less toxic)
# REPORTED_CONDITIONS: 111.1 nM; exposure time: 72 h
Counter-ions that a name gives are not always drawn.
Below, each of the compounds is paired with its reported surviving fraction value.
Please state the value as a number alone, without comment.

input: surviving fraction for COc1c(N2CCNC(C)C2)c(F)cc2c(=O)c(C(=O)O)cn(C3CC3)c12 (stereo not drawn) [Gatifloxacin] ?
output: 0.909

input: surviving fraction for CCCCCCCCCCCCCC(=O)O[C@@H]1[C@@H](C)[C@@]2(O)[C@@H](C=C(CO)C[C@]3(O)C(=O)C(C)=C[C@@H]23)[C@@H]2C(C)(C)[C@]12OC(C)=O [Phorbol 12-myristate 13-acetate] ?
output: 0.596

# input for lookup
input: surviving fraction for N=C(N)c1ccc(-c2ccc(-c3ccc(C(=N)N)cc3)o2)cc1 [Furamidine dihydrochloride] ?
output: 0.919
